Assay: Cmax in Swiss mouse brain at 2 mg/kg, iv
Format: ADME, organism-based
Parameters: dose 2 mg/kg, route intravenous
quantityKind: Cmax

1. CNc1cccc(NCCc2cccc(NCCc3ccccn3)n2)n1: 1840 ng/mL

* * *

Assay: Half life in Swiss mouse brain at 2 mg/kg, iv
Type: ADME, organism-based
quantityKind: half-life

1. CNc1cccc(NCCc2cccc(NCCc3ccccn3)n2)n1: 314 min

* * *

Experiment: AUC in Swiss mouse brain at 2 mg/kg, iv
Format: ADME, organism-based
quantityKind: AUC (ng·h/mL)

1. CNc1cccc(NCCc2cccc(NCCc3ccccn3)n2)n1: 863

* * *

Test: Aqueous solubility of the compound in PBS at pH 7.4
Format: physicochemical
Overview of reported solubility across a group of compounds:
quantityKind: solubility

1) CNc1cccc(CCNc2cccc(NCCc3ccccn3)n2)n1: > 200 µM
2) CNc1cccc(CNc2cccc(CNc3ccccn3)n2)n1: 18 µM
3) CNc1cccc(NCCc2cccc(NCCc3ccccn3)n2)n1: > 200 µM

Sourced from ChEMBL document CHEMBL3813681
